# target-or-test-system: UniProt:P03951
# experiment-description: Factor XIa inhibition assay (FLINT) utilizing a fluorophore-quencher pair peptide substrate
# Assay type: biochemical
# condition-context: 30 min preincubation, kinetic reads over 30 min, 5Fam-[…]-K5Tamra substrate 15 μM; read-out: FXIa Kin Inh IC50
# From the text: Biological Example 1: Factor XIa Inhibition Assay Utilizing a Fluorophore-Quencher Pair Peptide Substrate A fluorescence intensity (FLINT) based assay was used to monitor inhibition of Factor XIa. The peptide substrate, 5Fam-[…]-K5Tamra (purchased from New England Peptide) was chosen based on the FXI sequence. […] The peptide substrate was designed with a fluorophore-quencher pair, where the fluorescence is quenched until FXIa cleaves the 8-mer peptide after the Arg residue. […]
Under this convention, yes denotes IC50 strictly below 6 nM and no denotes IC50 at or above 6 nM.

Past entries and their recorded results:
compound="O=C1C=C(c2c(-n3cnnn3)ccc(Cl)c2F)C[C@H]2CC[C@H](c3ncc(-c4ccnc(-n5cnnc5)c4F)[nH]3)N12 (relative stereo)" assigned_category=no
compound=Nc1ccc(-c2cnc([C@@H]3CC[C@@H]4CC(c5c(-n6cnnn6)ccc(Cl)c5F)=CC(=O)N43)[nH]2)c(F)n1 assigned_category=yes
compound="[2H][C@]12CC[C@@H](c3ncc(-c4ccnc(CO)c4F)[nH]3)N1C(=O)C=C(c1c(-n3cnnn3)ccc(Cl)c1F)C2 (relative stereo)" assigned_category=yes
compound="O=C(O)c1nccc(-c2cnc([C@@H]3CC[C@@H]4CC(c5cc(Cl)ccc5-n5cc(C(F)(F)F)nn5)=CC(=O)N43)[nH]2)c1F (single isomer, unassigned)" assigned_category=yes
compound="COC(=O)Nc1ccc(-c2cnc([C@@H]3CC[C@H]4CC(c5c(-n6cnnn6)ccc(Cl)c5F)=CC(=O)N43)[nH]2)nc1 (relative stereo)" assigned_category=yes

Asked: Item O=C1C=C(c2c(-n3cnnn3)ccc(Cl)c2F)C[C@H]2CC[C@H](c3ncc(-c4ccnc(OC[C@@H]5COCCO5)c4F)[nH]3)N12 (relative stereo) : IC50 beneath 6 nM, strictly?
Given back: no

###

# target-or-test-system: Factor XIa (Homo sapiens (Human))
# experiment-description: Factor XIa inhibition assay (FLINT) utilizing a fluorophore-quencher pair peptide substrate
# Assay type: biochemical
# condition-context: 30 min preincubation, kinetic reads over 30 min, 5Fam-KLTRAETV-K5Tamra substrate 15 μM; read-out: FXIa Kin Inh IC50
# From the text: Biological Example 1: Factor XIa Inhibition Assay Utilizing a Fluorophore-Quencher Pair Peptide Substrate A fluorescence intensity (FLINT) based assay was used to monitor inhibition of Factor XIa. The peptide substrate, 5Fam-[…]-K5Tamra (purchased from New England Peptide) was chosen based on the FXI sequence. […] The peptide substrate was designed with a fluorophore-quencher pair, where the fluorescence is quenched until FXIa cleaves the 8-mer peptide after the Arg residue. […]
readout-name: pIC50
In simple prose, pIC50 is minus the logarithm base ten of a concentration in moles per litre.

compound="Cn1cc(-c2c[nH]c([C@@H]3CCC4CC(c5c(-n6cnnn6)ccc(Cl)c5F)=CC(=O)N43)n2)c(NC(=O)C2CC2)n1 (stereo partly drawn) [Example 259]" result=8.57

Here's the next entry for you.
Asked: Requested read-out: pIC50. Entry: CC1C[C@@H](c2ncc(-c3ccc(N)nc3F)[nH]2)N2C(=O)C=C(c3c(-n4cnnn4)ccc(Cl)c3F)CC12 (stereo partly drawn) [Example 348]
Given back: 9.30

###

# target-or-test-system: human plasma kallikrein (Homo sapiens (Human), UniProt P03952)
# Sequence (P03952 391-638): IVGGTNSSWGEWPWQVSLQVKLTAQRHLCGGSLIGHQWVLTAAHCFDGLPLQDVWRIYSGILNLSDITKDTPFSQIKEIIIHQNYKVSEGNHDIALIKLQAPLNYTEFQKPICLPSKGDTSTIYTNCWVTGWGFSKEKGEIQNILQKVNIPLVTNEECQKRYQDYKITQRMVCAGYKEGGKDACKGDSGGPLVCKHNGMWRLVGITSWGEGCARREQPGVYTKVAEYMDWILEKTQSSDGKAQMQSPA
# Sequence (P03952 20-390 partner): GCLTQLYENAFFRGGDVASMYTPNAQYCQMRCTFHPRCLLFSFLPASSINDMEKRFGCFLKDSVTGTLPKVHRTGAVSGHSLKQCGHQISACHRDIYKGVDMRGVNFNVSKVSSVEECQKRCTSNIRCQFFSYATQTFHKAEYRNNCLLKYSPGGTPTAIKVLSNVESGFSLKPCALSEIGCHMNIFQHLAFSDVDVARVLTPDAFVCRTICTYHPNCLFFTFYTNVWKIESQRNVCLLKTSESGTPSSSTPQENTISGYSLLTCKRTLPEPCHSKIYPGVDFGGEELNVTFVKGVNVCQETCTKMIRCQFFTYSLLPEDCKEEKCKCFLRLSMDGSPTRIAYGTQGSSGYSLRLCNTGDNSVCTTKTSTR
# experiment-description: Kallikrein inhibition assay (FLINT) utilizing a quenched AMC peptide substrate
# Assay type: biochemical
# condition-context: 30 min preincubation, kinetic reads over 30 min, Z-Gly-Pro-Arg-AMC substrate 50 μM; read-out: Kallikrein Kin Inh IC50
Measured IC50 accompanies every entry in the list below.
Reply with just the number (in nM).

Examples with answers:
structure=CC(=O)Nc1cnc(C(F)(F)F)cc1-c1cnc([C@@H]2CC[C@@H]3CC(c4c(-n5cnnn5)ccc(Cl)c4F)=CC(=O)N32)[nH]1 result=558
structure=O=C1C=C(c2c(-n3cnnn3)ccc(Cl)c2F)C[C@@H]2CC[C@@H](c3ncc(-c4ccc5[nH]c(=O)[nH]c5c4)[nH]3)N12 result=0.7

Here's the next entry for you.
Asked: Requested read-out: IC50. Entry: NC(=O)c1ncc(-c2c[nH]c([C@@H]3CC[C@@H]4CC(c5c(-n6cnnn6)ccc(Cl)c5F)=CC(=O)N43)n2)s1
Given back: 12.5

###

# target-or-test-system: human plasma kallikrein (Homo sapiens (Human), UniProt P03952)
# experiment-description: Kallikrein inhibition assay (FLINT) utilizing a quenched AMC peptide substrate
# Assay type: biochemical
# condition-context: 30 min preincubation, kinetic reads over 30 min, Z-Gly-Pro-Arg-AMC substrate 50 μM; read-out: Kallikrein Kin Inh IC50
Measured pIC50 accompanies every entry in the list below.
In simple prose, pIC50 is minus the logarithm base ten of a concentration in moles per litre.

Examples with answers:
compound="Nc1ccc(-c2cnc([C@H]3CC[C@@H]4CC(c5cc(Cl)ccc5-n5cnnn5)=CC(=O)N43)[nH]2)c(F)n1 (single isomer, unassigned) [Example 119]" result=7.93
compound="Nc1ccc(-c2cnc([C@@H]3CC[C@@H]4CC(c5cc(Cl)ccc5-n5cnnn5)=CC(=O)N43)[nH]2)c(F)n1 (single isomer, unassigned) [Example 122]" result=7.27

Asked: Requested read-out: pIC50. Entry: O=C1C=C(c2c(-n3cnnn3)ccc(Cl)c2F)C[C@H]2CC[C@H](c3ncc(-c4c[nH]nc4C(F)(F)F)[nH]3)N12 (single isomer, unassigned) [Example 239]
Given back: 7.80

Asked: Requested read-out: pIC50. Entry: CNc1ccc(-c2cnc([C@@H]3CC[C@@H]4CC(c5cc(Cl)ccc5-n5cnnn5)=CC(=O)N43)[nH]2)c(F)n1 (single isomer, unassigned) [Example 98]
Given back: 8.05

###

# target-or-test-system: Factor XIa (Homo sapiens (Human))
# experiment-description: Factor XIa inhibition assay (FLINT) utilizing a fluorophore-quencher pair peptide substrate
# Assay type: biochemical
# condition-context: 30 min preincubation, kinetic reads over 30 min, 5Fam-KLTRAETV-K5Tamra substrate 15 μM; read-out: FXIa Kin Inh IC50
Measured pIC50 accompanies every entry in the list below.
In simple prose, pIC50 is minus the logarithm base ten of a concentration in moles per litre.

compound="[2H]c1cc(-c2[nH]c([C@@H]3CC[C@@H]4CC(c5c(-n6cnnn6)ccc(Cl)c5F)=CC(=O)N43)nc2[2H])c(F)nc1N [Example 145]" readout_name=pIC50 result=9.22

Asked: Requested read-out: pIC50. Entry: O=C1C=C(c2c(-n3cnnn3)ccc(Cl)c2F)C[C@H]2CC[C@@H](c3nc(F)c(-c4ccnc(CO)c4F)[nH]3)N12 [Example 107]
Given back: 9.15

Asked: Requested read-out: pIC50. Entry: O=C1C=C(c2c(-n3cc(C(F)(F)F)nn3)ccc(Cl)c2F)C[C@H]2CC[C@@H](c3ncc(-c4ccnc(CO)c4F)[nH]3)N12 [Example 67]
Given back: 7.97

###

# target-or-test-system: Factor XIa (Homo sapiens (Human))
# experiment-description: Factor XIa inhibition assay (FLINT) utilizing a fluorophore-quencher pair peptide substrate
# Assay type: biochemical
# condition-context: 30 min preincubation, kinetic reads over 30 min, 5Fam-KLTRAETV-K5Tamra substrate 15 μM; read-out: FXIa Kin Inh IC50
readout-name: IC50 (nM)
Reply with just the number (in nM).

compound=O=C1C=C(c2c(-n3cnnn3)ccc(Cl)c2F)C[C@H]2CC[C@@H](c3ncc(-c4c[nH]c(C(F)(F)F)n4)[nH]3)N12 result=37.1
compound=O=C1CCc2cc(-c3cnc([C@@H]4CC[C@@H]5CC(c6cc(Cl)ccc6-n6cc(C(F)(F)F)nn6)=CC(=O)N54)[nH]3)ccc2N1 result=1.6
compound="O=C1C=C(c2c(-n3cnnn3)ccc(Cl)c2F)C[C@H]2CC[C@@H](c3ncc(-c4ccnc(C[C@H](O)C(F)(F)F)c4F)[nH]3)N12 (single isomer, unassigned)" result=2.4
compound=O=C1C=C(c2c(-n3cnnn3)ccc(Cl)c2F)C[C@H]2CC[C@@H](c3ncc(-c4ccnc5c4OCCO5)[nH]3)N12 result=0.7
compound=[2H]c1cc(-c2cnc([C@@H]3CC[C@@H]4CC(c5cc(Cl)ccc5-n5cnnn5)=CC(=O)N43)[nH]2)c(F)nc1N result=0.4

Here's the next entry for you.
Asked: Short answer please: IC50, Factor XIa (Homo sapiens (Human)), entry O=C1C=C(c2c(-n3cnnn3)ccc(Cl)c2F)C[C@H]2CC[C@@H](c3nc(-c4ccc5[nH]ncc5c4)c[nH]3)N12
Given back: 2.1

###

# target-or-test-system: Factor XIa (Homo sapiens (Human), UniProt P03951)
# Sequence (P03951 388-625): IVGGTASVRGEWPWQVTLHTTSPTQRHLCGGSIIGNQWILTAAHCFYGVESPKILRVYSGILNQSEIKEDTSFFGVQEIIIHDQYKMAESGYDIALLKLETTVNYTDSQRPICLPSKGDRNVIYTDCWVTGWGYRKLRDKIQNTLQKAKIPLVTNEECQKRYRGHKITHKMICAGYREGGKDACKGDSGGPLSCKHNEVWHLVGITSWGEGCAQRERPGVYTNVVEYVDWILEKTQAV
# Sequence (P03951 19-387 partner): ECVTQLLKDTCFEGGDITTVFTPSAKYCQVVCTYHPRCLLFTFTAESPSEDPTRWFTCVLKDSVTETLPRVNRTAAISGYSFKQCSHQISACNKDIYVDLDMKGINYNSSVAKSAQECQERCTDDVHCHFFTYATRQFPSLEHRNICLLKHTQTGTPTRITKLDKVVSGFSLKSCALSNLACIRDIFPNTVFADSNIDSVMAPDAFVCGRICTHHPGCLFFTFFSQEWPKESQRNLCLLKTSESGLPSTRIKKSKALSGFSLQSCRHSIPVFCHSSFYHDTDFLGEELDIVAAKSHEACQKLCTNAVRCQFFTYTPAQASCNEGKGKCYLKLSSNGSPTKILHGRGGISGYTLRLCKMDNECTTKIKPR
# experiment-description: Factor XIa inhibition assay (FLINT) utilizing a fluorophore-quencher pair peptide substrate
# Assay type: biochemical
# condition-context: 30 min preincubation, kinetic reads over 30 min, 5Fam-KLTRAETV-K5Tamra substrate 15 μM; read-out: FXIa Kin Inh IC50
# Source text: Biological Example 1: Factor XIa Inhibition Assay Utilizing a Fluorophore-Quencher Pair Peptide Substrate A fluorescence intensity (FLINT) based assay was used to monitor inhibition of Factor XIa. The peptide substrate, 5Fam-[…]-K5Tamra (purchased from New England Peptide) was chosen based on the FXI sequence. […] The peptide substrate was designed with a fluorophore-quencher pair, where the fluorescence is quenched until FXIa cleaves the 8-mer peptide after the Arg residue. […]
readout-name: IC50 (nM)
Reply with just the number (in nM).

Examples with answers:
compound="O=C1C=C(c2c(-n3cc(C(F)(F)F)nn3)ccc(Cl)c2F)C[C@H]2CC[C@@H](c3ncc(-c4ccc5[nH]c(=O)ccc5c4)[nH]3)N12 (single isomer, unassigned) [Example 152]" result=0.7
compound="COc1ccc(NC(=O)C2CC2)c(-c2c[nH]c([C@@H]3CC[C@H]4CC(c5c(-n6cnnn6)ccc(Cl)c5F)=CC(=O)N43)n2)c1 [Example 271]" result=0.8
compound="COc1c(-c2cnc(C3CC[C@H]4CC(c5c(-n6cnnn6)ccc(Cl)c5F)=CC(=O)N34)[nH]2)ccnc1N (stereo in doubt) [Example 382]" result=1.4
compound="O=C1C=C(c2c(-n3cc(C(F)(F)F)nn3)ccc(Cl)c2F)C[C@H]2CC[C@@H](c3ncc(-c4c[nH]c5ccncc45)[nH]3)N12 [Example 385]" result=3.6

Asked: Short answer please: IC50, Factor XIa (Homo sapiens (Human), UniProt P03951), entry Nc1nccc(-c2cnc([C@@H]3CC[C@@H]4CC(c5c(-n6cnnn6)ccc(Cl)c5F)=CC(=O)N43)[nH]2)c1Cl [Example 380]
Given back: 0.8

Asked: Short answer please: IC50, Factor XIa (Homo sapiens (Human), UniProt P03951), entry O=C1C=C(c2c(-n3cnnn3)ccc(Cl)c2F)C[C@H]2CC[C@@H](c3nc(-c4cnc5[nH]ncc5c4)c[nH]3)N12 [Example 41]
Given back: 44.7

Asked: Short answer please: IC50, Factor XIa (Homo sapiens (Human), UniProt P03951), entry O=C1C=C(c2c(-n3cnnn3)ccc(Cl)c2F)C[C@H]2CC[C@@H](c3nc(-c4ccnc5[nH]ccc45)c[nH]3)N12 [Example 32]
Given back: 1.5

Asked: Short answer please: IC50, Factor XIa (Homo sapiens (Human), UniProt P03951), entry NC(=O)c1ccc(-c2cnc([C@@H]3CC[C@H]4CC(c5c(-n6cnnn6)ccc(Cl)c5F)=CC(=O)N43)[nH]2)c(Cl)n1 [Example 228]
Given back: 18.8
